These measurements were taken from the RNAGym collection of RNA variant scans (doi:10.1126/science.aae0568).

B1: tRNA (parent)
chain: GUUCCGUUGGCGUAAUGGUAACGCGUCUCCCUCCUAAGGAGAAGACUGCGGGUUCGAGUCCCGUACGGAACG

- Variants of: B1
- procedureSummary: yeast fitness relative to wild type (ratio to wild type); higher = fitter; tRNA-Arg(CCU), competitive growth, 37 C, YPD
Fewer inactive variants are shown than the library holds.
quantityKind: yeast fitness
Format: numeric value only, no unit, no commentary.

# input Form field: reported yeast fitness of C24G U28G C29G U35G U47A
# output 0.606

# input Then A15C U35A G50C A65C ?
# output 0.603

# input Then G18A C22G C27G C49U G58A ?
# output 0.608
